test: viability loss in pontine glioma line – cell-based, SU-DIPG-XVII, MIPE5.0, CellTiter-Glo, qHTS, dose response (AID 1347060); details: CellTiter-Glo ATP luminescence;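 as to AC50: cells exposed to compound for 48 hours before viability readout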
Records with an inconclusive call do not appear. Activity calls are given as the source filed them. The limit is not given here; nearly all actives have AC50 up to about 26 µM.
Outcome codes: active, inactive

>>> print(df.to_string())
                                   molecule     group
0         CC(C)(C)C(=O)N1N=CC[C@H]1c1ccccc1  inactive
1  CC1(C)C(N(O)C(=O)Nc2ccc(Cl)cc2)N(c2ccc(Cl)cc2)C(=O)N1CC(=O)N/N=C/C=C/c1ccc([N+](=O)[O-])o1 (centres undefined)    active
2  COc1cc(-c2nn(C3CCC(N4CCN(C(C)=O)CC4)CC3)c3ncnc(N)c23)ccc1NC(=O)c1cc2ccccc2n1C (centres undefined)    active
3  CC#CC(=O)N1CCC[C@H]1c1nc(-c2ccc(C(=O)Nc3ccccn3)cc2)c2c(N)nccn12  inactive
4    CCOC(=O)c1ccnc(CNCC(=O)N(CC)CCN(C)C)c1  inactive
5  O=C(/C=C\n1cnc(-c2cc(C(F)(F)F)cc(C(F)(F)F)c2)n1)NNc1ccccn1    active
6  CCCc1c(OCCCOc2ccc(OCC(=O)O)cc2)ccc(C(C)=O)c1O  inactive
7  Cn1nccc1Nc1nccc(-c2ccn([C@H](CO)c3ccc(Cl)c(F)c3)c(=O)c2)n1    active
8  COc1ccccc1N1CCN(CCN(C(=O)C2CCCCC2)c2ccccn2)CC1  inactive

* * *

assay: viability loss in pontine glioma line – cell-based, SU-DIPG-XIII, MIPE5.0, CellTiter-Glo, qHTS, dose response (AID 1347064); details: CellTiter-Glo ATP luminescence;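 as to AC50: cells exposed to compound for 48 hours before the viability read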
Results filed as inconclusive are left out. Activity calls are given as the source filed them. The limit is not given here; nearly all actives have AC50 up to about 23 µM.
observationType: AC50

>>> print(df.to_string())
                                   compound              reading
0  O=C(Nc1cnccc1Cl)N1CCN(Cc2ccc3c(c2)OC(F)(F)O3)CC1             inactive
1  CCC(=O)N1CCN(c2ccc(-n3c(=O)ccc4cnc5ccc(-c6cnc7ccccc7c6)cc5c43)cc2C(F)(F)F)CC1    0.162 µM (active)
2  Cc1cc(Nc2cc(N3CCN(C)CC3)nc(/C=C/c3ccccc3)n2)n[nH]1     2.09 µM (active)
3  Cc1ccccc1-n1nc(-c2c(-c3ccc(F)cc3)nn3c2NC[C@@H](CO)C3)ccc1=O             inactive
4  N#Cc1c(N)nc(N)nc1N[C@H](c1nc2c(F)ccc(Cl)c2c(=O)n1-c1cccnc1)C1CC1     13.2 µM (active)
5  CC(=NNC(=O)c1cccc(S(=O)(=O)N2CCOCC2)c1)c1cc(Cl)ccc1O     6.61 µM (active)
6  Cc1ccc(NC(=O)NCc2ccc3c(c2)CN(C2CCC(=O)NC2=O)C3=O)cc1Cl (centres undefined)  0.00296 µM (active)
7  CC(/C=C/C(=O)NO)=C\[C@@H](C)C(=O)c1ccc(N(C)C)cc1    0.209 µM (active)
8  Cc1cnc(Nc2ccc(F)cc2Cl)nc1-c1c[nH]c(C(=O)N[C@H](CO)c2cccc(Cl)c2)c1     1.32 µM (active)

* * *

test: drug combination growth inhibition, ovarian cancer – cell-based, oncology-focused library, rucaparib conditional, profiling panel (AID 1508598); settings: patient-derived ovarian cancer cells, CellTiter-Glo viability, 144 h; at 0.313 µM; OCI-C5x cells; with rucaparib 10 µM; stronger effect = lower value; 100% = cells with rucaparib alone
Entries and their viability
observationType: viability (%)

                                    molecule  observationtype  reading
 0  Cc1ccc(C(=O)N(CCCN)[C@@H](c2oc3cc(Cl)ccc3c(=O)c2Cc2ccccc2)C(C)C)cc1        viability     54.9
 1  Cc1ccc([C@@H]2O[C@H](CO)[C@@H](O)[C@H](O)[C@H]2O)cc1Cc1ccc(-c2ccc(F)cc2)s1        viability      117
 2  CCN1CCN(Cc2ccc(-c3cc4c(N[C@H](C)c5ccccc5)ncnc4[nH]3)cc2)CC1        viability      119
 3  COc1cc2nccc(Oc3ccc(NC(=O)C4(C(=O)Nc5ccc(F)cc5)CC4)cc3)c2cc1OC        viability      130
 4  Cc1cc(CS(=O)(=O)c2ccccc2)cc(OCc2ccc(CN3CCC[C@@H]3CO)cc2)c1        viability      116
 5  CS(=O)(=O)N1CCc2c(-c3cnc(N)nc3)nc(N3CCOCC3)nc21        viability     91.8
 6  O=C(Nc1cccc(Cl)c1)Nc1ncc(CCNc2ncnc3ccsc23)s1        viability     91.9
 7  CCCS(=O)(=O)Nc1ccc(F)c(C(=O)c2c[nH]c3ncc(-c4ccc(Cl)cc4)cc23)c1F        viability      106
 8  CC(C)(C)c1cnc(CSc2cnc(NC(=O)C3CCNCC3)s2)o1        viability     94.4
 9  C#Cc1cccc(Nc2ncnc3cc(OC)c(OCCCCCCC(=O)NO)cc23)c1        viability     87.3
10  COc1ccc(-n2c(SCCCN3C(=O)c4cccc5cccc(c45)C3=O)nnc2-c2ccncc2)cc1        viability      138
11  COc1ncc(-c2ccc3nccc(-c4ccnnc4)c3c2)cc1NS(=O)(=O)c1ccc(F)cc1F        viability     23.7
12  Nc1ccccc1NC(=O)c1ccc(CNc2nccc(-c3cccnc3)n2)cc1        viability     67.3
13  COCCOc1nc(-c2ccc(Cl)c(Cl)c2)n(-c2ccc(NC(=O)CCl)cc2)n1        viability      124
14  Cc1nc(N)sc1-c1ccnc(Nc2ccc(N3CCOCC3)cc2)n1        viability      109
15  CN1CCN(c2cccc(Nc3nc4c(-c5ccc(S(C)(=O)=O)cc5)cccn4n3)c2)CC1        viability      113
16  COc1cc2c(Oc3ccc4[nH]c(C)cc4c3F)ncnc2cc1OCCCN1CCCC1        viability      116
17  COc1ccc(-c2ccc3c(N4CCOC[C@@H]4C)nc(N4CCOC[C@@H]4C)nc3n2)cc1CO        viability     47.2
18  CNC(=O)c1cc(Oc2ccc(NC(=O)Nc3cc(C(C)(C)C)nn3-c3ccc4ncccc4c3)c(F)c2)ccn1        viability     96.9
19  CC1(O)CC(c2nc(-c3ccc4ccc(-c5ccccc5)nc4c3)c3c(N)nccn23)C1 (configuration not stated)        viability      133
20  O=C(Nc1cccnc1)N1CCC(Cc2cccc(Oc3ccc(C(F)(F)F)cn3)c2)CC1        viability      117
21  CCC(CC)CC1(C(=O)Nc2ccccc2SC(=O)C(C)C)CCCCC1        viability     99.9
22  O=C(O)CCC1CCC(c2cc(F)ccc2F)(S(=O)(=O)c2ccc(Cl)cc2)CC1 (configuration not stated)        viability      113
23  CC(=O)c1c(C)c2cnc(Nc3ccc(N4CCNCC4)cn3)nc2n(C2CCCC2)c1=O        viability      111
24  Nc1ccc(-c2ccc3ncc4ccc(=O)n(-c5cccc(C(F)(F)F)c5)c4c3c2)cn1        viability      109
25  C=C(c1ccc(C(=O)O)cc1)c1cc2c(cc1C)C(C)(C)CCC2(C)C        viability      103
26  c1ccc2c(CCNc3ccc(Nc4ccncc4)cc3)c[nH]c2c1        viability      110
27  CNc1nc(-c2ccc3c(N)n[nH]c3c2)cc(N2C[C@@H](C(=O)NC3CCCCC3)CC[C@H]2C)n1        viability      107
28  C=CCn1c(=O)c2cnc(Nc3ccc(N4CCN(C)CC4)cc3)nc2n1-c1cccc(C(C)(C)O)n1        viability     69.6
29                  CN(C)N=Nc1nc[nH]c1C(N)=O        viability      112
30  Cc1cnc(-c2cnc(NCCNc3ccc(C#N)cn3)nc2-c2ccc(Cl)cc2Cl)[nH]1        viability      127
31  CN1CCCN(C(=O)c2cccc(-c3ccc(/C=C4/C(=O)Nc5ccc(Cl)cc54)o3)c2)CC1        viability      105

* * *

test: drug combination growth inhibition, ovarian cancer – cell-based, oncology-focused library, rucaparib conditional, profiling panel (AID 1508598); conditions: patient-derived ovarian cancer cells, CellTiter-Glo viability, 144 h; at 0.0781 µM; OCI-C5x cells; without rucaparib; stronger effect = lower value
# Lookup of reported viability keyed by entry
observationType: viability (%)

                                   molecule  reading
0       Cc1ccc2c(=O)c3cccc(CC(=O)O)c3oc2c1C      114
1  Oc1cccc(-c2nc(N3CCOCC3)c3oc4ncccc4c3n2)c1      107
2  Cc1ccc(C(=O)N(CCCN)[C@@H](c2nc3cc(Cl)ccc3c(=O)n2Cc2ccccc2)C(C)C)cc1     65.7
3  N#CCNC(=O)c1ccc(-c2ccnc(Nc3ccc(N4CCOCC4)cc3)n2)cc1      116
4  COc1ccc(COc2cc3oc(=O)c4cc(C(C)O)ccc4c3cc2OC)cc1 (stereo not given)      114
5  O=C(O)[C@H](Cc1c[nH]c2ccccc12)N1C(=O)c2ccccc2C1=O      117
6  CC1(O)CC(c2nc(-c3ccc4ccc(-c5ccccc5)nc4c3)c3c(N)nccn23)C1 (stereo not given)      133
7  COc1ccc(S(=O)(=O)Nc2cccnc2Nc2ccc(O)cc2)cc1      134
8  Cn1cncc1[C@@](N)(c1ccc(Cl)cc1)c1ccc2c(c1)c(-c1cccc(Cl)c1)cc(=O)n2C      121
9  Nc1ccccc1NC(=O)c1ccc(CNc2nccc(-c3cccnc3)n2)cc1      101

The values you see were collected from PubChem BioAssay.
